System: PA-TU-8988T (Pancreatic Carcinoma)
PROTOCOL DESCRIPTION: Bliss excess, mean over the matrix (fraction); higher = more synergy;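 also: after 72 h of two-drug dosing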
MEASURE: Bliss excess
// return just the number, without any unit appended

>>> numeric_value("Cn1cnc2c(F)c(Nc3ccc(Br)cc3Cl)c(C(=O)NOCCO)cc21 [Selumetinib] + CCN(CCO)CCCOc1ccc2c(Nc3cc(CC(=O)Nc4cccc(F)c4)[nH]n3)ncnc2c1 [AZD2811] (first compound max 10 µM, 7x7, partner max 1 µM)")
-0.0527

Memo: CN(CCO)CC[C@H](CSc1ccccc1)Nc1ccc(S(=O)(=O)NC(=O)c2ccc(N3CCC([C@@H](O)c4ccccc4-c4ccc(Cl)cc4)CC3)cc2)cc1S(=O)(=O)C(F)(F)F [AZD4320] + Cc1cc2ncnn2cc1Nc1ncc2c(n1)n(C1CCOCC1)c(=O)n2C [AZD7648] (first compound max 1 µM, 7x7, partner max 10 µM) , reported Bliss excess: -0.043

Memo: CN(CCO)CC[C@H](CSc1ccccc1)Nc1ccc(S(=O)(=O)NC(=O)c2ccc(N3CCC([C@@H](O)c4ccccc4-c4ccc(Cl)cc4)CC3)cc2)cc1S(=O)(=O)C(F)(F)F [AZD4320] + CN(C)CCCOc1ccc(-c2ccc3ncc4c(c3c2)n(C2CCOCC2)c(=O)n4C)cn1 [AZD0156] (first compound max 1 µM, 7x7, partner max 1 µM) , reported Bliss excess: -0.005

###

Parameter: Bliss excess. Scope: all listed entries.
Tested on: CPC-N (Small Cell Lung Carcinoma)
PROTOCOL DESCRIPTION: Bliss excess, mean over the matrix (fraction); higher = more synergy

>>> result("CC1(C)CCC(CN2CCN(c3ccc(C(=O)NS(=O)(=O)c4ccc(NCC5CCOCC5)c([N+](=O)[O-])c4)c(Oc4cnc5[nH]ccc5c4)c3)CC2)=C(c2ccc(Cl)cc2)C1 [Venetoclax] + C=CCn1c(=O)c2cnc(Nc3ccc(N4CCN(C)CC4)cc3)nc2n1-c1cccc(C(C)(C)O)n1 [AZD1775] (first compound max 1 µM, partner max 1 µM)")
0.0439
>>> result("CC1(C)CCC(CN2CCN(c3ccc(C(=O)NS(=O)(=O)c4ccc(NCC5CCOCC5)c([N+](=O)[O-])c4)c(Oc4cnc5[nH]ccc5c4)c3)CC2)=C(c2ccc(Cl)cc2)C1 [Venetoclax] + CCN(CCO)CCCOc1ccc2c(Nc3cc(CC(=O)Nc4cccc(F)c4)[nH]n3)ncnc2c1 [AZD2811] (first compound max 1 µM, 7x7, partner max 1 µM)")
-0.048
>>> result("Cc1c2c(nn1C)CSCc1cc(n(C)n1)CSc1cc(c3ccccc3c1)OCCCc1c(C(=O)O)n(C)c3c-2c(Cl)ccc13 [AZD5991] + CC1(C)CCC(CN2CCN(c3ccc(C(=O)NS(=O)(=O)c4ccc(NCC5CCOCC5)c([N+](=O)[O-])c4)c(Oc4cnc5[nH]ccc5c4)c3)CC2)=C(c2ccc(Cl)cc2)C1 [Venetoclax] (first compound max 1 µM, 7x7, partner max 1 µM)")
-0.017
>>> result("COc1cc2ncnc(Nc3ccc(F)c(Cl)c3)c2cc1OCCCN1CCOCC1 [Gefitinib] + CC(C)n1c(=O)n(C)c2cnc3cc(F)c(-c4ccc(OCCCN5CCCCC5)nc4)cc3c21 [AZD1390] (first compound max 10 µM, 7x7, partner max 0.3 µM)")
-0.0369
>>> result("COc1cccc(OCCCN)c1-c1cc(Nc2cnc(C#N)cn2)n[nH]1 [Prexasertib] + Cc1cc2ncnn2cc1Nc1ncc2c(n1)n(C1CCOCC1)c(=O)n2C [AZD7648] (first compound max 1 µM, 7x7, partner max 10 µM)")
-0.0459
>>> result("CC1(C)CCC(CN2CCN(c3ccc(C(=O)NS(=O)(=O)c4ccc(NCC5CCOCC5)c([N+](=O)[O-])c4)c(Oc4cnc5[nH]ccc5c4)c3)CC2)=C(c2ccc(Cl)cc2)C1 [Venetoclax] + Cc1cc2ncnn2cc1Nc1ncc2c(n1)n(C1CCOCC1)c(=O)n2C [AZD7648] (first compound max 1 µM, 7x7, partner max 10 µM)")
-0.0219

From here, focus on the item given below.
Memo: C[C@@H](c1ccc2nccn2c1)n1nnc2ncc(-c3cnn(C)c3)nc21 [Savolitinib] + Cc1c2c(nn1C)CSCc1cc(n(C)n1)CSc1cc(c3ccccc3c1)OCCCc1c(C(=O)O)n(C)c3c-2c(Cl)ccc13 [AZD5991] (first compound max 1 µM, 7x7, partner max 1 µM) , reported Bliss excess: -0.0179
